B1: STK38L (parent)
chain: FLPGGDMMTLLMKKDTLTEEETQF

Variants of: B1
Assay: protein stability index of a GFP-peptide fusion (GPS, HEK-293T) (PSI 1-6); higher = more stable;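 note: lentivirally expressed fusions sorted by FACS into six bins by GFP to DsRed ratio, PSI derived from sequencing read proportions per bin multiplied by bin number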
Details: c terminus: a fixed tail appended
property name: protein stability index
Just the number, please, no unit after it.

Reference set (5 entries):
| mutation string | property name | result |
| --- | --- | --- |
| E19G | protein stability index | 2.35 |
| G5N | protein stability index | 3.13 |
| L2V | protein stability index | 1.78 |
| K13V | protein stability index | 1.95 |
| T16K | protein stability index | 2.31 |

Given L10C , state its recorded protein stability index.
3.45
